- target_system: T1, human vascular endothelial growth factor receptor-2 Fc chimera (KDR-Fc) (human, UniProt P35968 20-764)
- T1 construct: range 1-764; also called human VEGFR-2; not shown: human IgG1 Fc
- T1 sequence (P35968 20-764 limits assumed, change not shown, form in doubt): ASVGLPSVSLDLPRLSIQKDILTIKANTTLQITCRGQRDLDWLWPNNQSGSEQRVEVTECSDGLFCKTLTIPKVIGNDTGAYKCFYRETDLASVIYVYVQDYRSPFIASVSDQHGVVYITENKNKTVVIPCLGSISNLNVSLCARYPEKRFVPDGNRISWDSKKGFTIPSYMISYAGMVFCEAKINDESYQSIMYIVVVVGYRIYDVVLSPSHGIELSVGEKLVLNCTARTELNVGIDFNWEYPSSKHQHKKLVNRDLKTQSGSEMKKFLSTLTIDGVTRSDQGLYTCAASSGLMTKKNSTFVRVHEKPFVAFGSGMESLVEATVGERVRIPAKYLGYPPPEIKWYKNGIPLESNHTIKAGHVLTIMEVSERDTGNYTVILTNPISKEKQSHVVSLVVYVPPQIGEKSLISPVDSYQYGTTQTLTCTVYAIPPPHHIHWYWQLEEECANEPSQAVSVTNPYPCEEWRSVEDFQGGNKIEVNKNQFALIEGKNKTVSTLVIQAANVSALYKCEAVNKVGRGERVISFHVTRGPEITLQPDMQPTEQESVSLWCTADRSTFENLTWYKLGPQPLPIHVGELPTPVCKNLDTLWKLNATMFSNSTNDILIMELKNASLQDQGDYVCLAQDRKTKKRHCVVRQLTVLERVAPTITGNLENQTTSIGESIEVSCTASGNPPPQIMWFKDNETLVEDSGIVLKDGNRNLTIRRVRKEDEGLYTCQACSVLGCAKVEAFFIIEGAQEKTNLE
- experiment_description: radioactive equilibrium binding, 1 nM KDR-Fc, % of input
Measured Binding to 1 nM KDR, %, listed per entry for reference.
measured_endpoint: Binding to 1 nM KDR, % (%)

INSERT INTO assay_data (binder, measured_value) VALUES
  ('1′DelH5 PR4 (designed binder) EVVAATPTSLLISWRHPHFPTRYYRITYGETGGNSPVQEFTVPLQPPTATISGLKPGVDYTITVYAVTVAQNDRELFTPISINYRT', 17),
  ('3G2 PR3 (designed binder) EVVAATPTSLLISWRHPHFPTRYYRITYGETGGNSPVQEFTVPLQPPTATISGLKPGVDYTITVYAVTFGPSDHVLLTPISINYRT', 20),
  ('4′G12 PR4 (designed binder) EVVAATPTSLLISWRHPHFPTRYYRITYGETGGNSPVQEFTVPLQPPTATISGLKPGVDYTITVYAVTVAWNDHEIYTPISINYRT', 21);

Values compiled from patent US20120283184A1.
